Consider the following compounds; for each one, report its IC50.
molecular target: full-length human PKCι (Homo sapiens, UniProt P41743); construct: Recombinant, full-length human PKCι expressed in Sf21 insect cells is also commercially available; purchased; host or cells: Sf21 insect cells; assay: PKCι IC50 IMAP fluorescence polarisation assay, full-length enzyme; type: biochemical; conditions: full length PKCi at 15 μM ATP; read-out: IC50 in IMAP assay against full length PKCi

Supply reported IC50 belonging to this compound: `CC(C)(C)c1sc2c(NC[C@@H](N)Cc3ccccc3)nc(-c3ccncc3)nc2c1-c1ccc(F)nc1`
10 to 40 µM

Dear colleague, please send me the reported IC50 for `N[C@H](CNc1nc(-c2ccncc2F)nc2c(C#CCCO)csc12)Cc1ccccc1` when you can.
0.1 to 1 µM

Fill in reported IC50 for this entry: `Cc1ccsc1-c1csc2c(NC[C@@H](N)Cc3ccccc3)nc(-c3ccncc3)nc12`
0.1 to 1 µM

Fill in reported IC50 for this entry: `Brc1csc2c(NC[C@@H]3CCCN3)nc(-c3ccncc3)nc12`
10 to 40 µM

For the compound `COc1cccc(OC)c1-c1c(C)sc2c(NC[C@@H](N)Cc3ccccc3)nc(-c3ccncc3)nc12` , report IC50.
10 to 40 µM

Name the recorded IC50 of the item `O=C(Nc1cc(-c2nc(N[C@@H]3CCNC3)c3sccc3n2)ccn1)[C@@H]1CCCO1` in your answer.
0.1 to 1 µM

Let me know recorded IC50 for `Fc1cnccc1-c1nc(N[C@@H]2CCNC2)c2scc(Br)c2n1` , thanks.
1 to 10 µM

Output IC50 of `c1ccc(Nc2csc3c(N[C@@H]4CCNC4)nc(-c4ccncc4)nc23)nc1`
1 to 10 µM

====

Give measured pIC50 for each item. Keep answers brief.
Biological target: full-length human PKCι (Homo sapiens)
Construct: Recombinant, full-length human PKCι expressed in Sf21 insect cells is also commercially available; purchased; host or cells: Sf21 insect cells
Sequence (P41743 1-596): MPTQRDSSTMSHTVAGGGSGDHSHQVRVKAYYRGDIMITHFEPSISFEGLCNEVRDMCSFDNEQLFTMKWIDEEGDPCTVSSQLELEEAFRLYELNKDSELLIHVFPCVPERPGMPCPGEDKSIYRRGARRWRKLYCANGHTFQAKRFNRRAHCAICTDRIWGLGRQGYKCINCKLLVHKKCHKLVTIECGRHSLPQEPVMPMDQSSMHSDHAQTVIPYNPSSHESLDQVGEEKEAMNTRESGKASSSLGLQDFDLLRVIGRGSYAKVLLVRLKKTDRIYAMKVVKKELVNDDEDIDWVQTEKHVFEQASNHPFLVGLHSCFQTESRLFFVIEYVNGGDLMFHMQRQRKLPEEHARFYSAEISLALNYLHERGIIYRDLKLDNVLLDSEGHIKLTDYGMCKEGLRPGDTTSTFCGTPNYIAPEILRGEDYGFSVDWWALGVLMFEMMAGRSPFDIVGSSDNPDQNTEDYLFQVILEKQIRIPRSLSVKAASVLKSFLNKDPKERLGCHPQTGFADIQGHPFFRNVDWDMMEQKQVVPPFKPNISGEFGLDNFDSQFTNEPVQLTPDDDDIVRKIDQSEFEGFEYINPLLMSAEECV
Experiment: PKCι IC50 IMAP fluorescence polarisation assay, full-length enzyme
Format: biochemical
Settings: full length PKCi at 15 μM ATP; read-out: IC50 in IMAP assay against full length PKCi
pIC50: −log10 of the molar value.

Please report the measured pIC50 for `c1cn(Cc2ccc(Nc3cc(-c4nc(N[C@@H]5CCNC5)c5sccc5n4)ccn3)cc2)cn1`
6.00 to 7.00

Name the recorded pIC50 of the item `Cc1cc(Nc2csc3c(NC[C@@H](N)Cc4ccccc4)nc(-c4ccncc4)nc23)no1` in your answer.
> 7.00

Using known records, supply pIC50 for `CCNC(=O)c1csc2c(NC[C@@H](N)Cc3ccccc3)nc(-c3ccncc3)nc12`
6.00 to 7.00

For the compound `Brc1csc2c(N[C@H]3CCNC3)nc(-c3ccncc3)nc12` , report pIC50.
5.00 to 6.00

Given `N[C@H](CNc1nc(-c2ccncc2F)nc2c(-c3ccc[nH]3)csc12)Cc1ccccc1` , respond with its pIC50.
6.00 to 7.00

Please indicate pIC50 recorded for `Fc1cccc(Nc2csc3c(N[C@@H]4CCNC4)nc(-c4ccncc4F)nc23)c1`
5.00 to 6.00

State, in one line, measured pIC50 of `c1cc(-c2nc(N[C@@H]3CCNC3)c3sccc3n2)cc(NC2CCCCC2)n1`
4.40 to 5.00

Tell me its pIC50 given NC(CNc1nc(-c2ccncc2F)nc2c(-c3cccnc3)csc12)Cc1ccccc1 (stereo in doubt) as the entry.
5.00 to 6.00

Look up and state reported pIC50 for `O=S(=O)(Nc1cc(-c2nc(N[C@@H]3CCNC3)c3sccc3n2)ccn1)c1ccccc1`
4.40 to 5.00

Given the compound `N[C@H](CNc1nc(-c2ccncc2F)nc2c(C#CCO)csc12)Cc1ccccc1` , write its reported pIC50.
> 7.00

# return recorded pIC50 for entry `C[C@@H](F)C#Cc1csc2c(NC[C@@H](N)Cc3ccccc3)nc(-c3ccncc3)nc12`
> 7.00

Give pIC50 for `N[C@H](CNc1nc(-c2ccncc2)nc2c(-c3cn[nH]c3)csc12)Cc1ccccc1`
6.00 to 7.00

Annotate the compound `c1cc(-c2nc(N[C@@H]3CCNC3)c3sccc3n2)cc(NC2CCOCC2)n1` with its measured pIC50.
4.40 to 5.00

Using known records, supply pIC50 for `CC(C)(C)C#Cc1csc2c(NC[C@@H](N)Cc3ccccc3)nc(-c3ccncc3)nc12`
5.00 to 6.00

Report pIC50, nothing else, for this compound: `Brc1csc2c(NC[C@H]3CCCN3)nc(-c3ccncc3)nc12`
4.40 to 5.00

Entry `CC(C)(C)c1sc2c(NC[C@@H](N)Cc3ccccc3)nc(-c3ccncc3)nc2c1-c1ccc(F)cc1` needs its pIC50 filled in; supply it.
4.40 to 5.00
